biological target: T1, human OT7T175 (metastin receptor) (human, UniProt Q969F8 1-398); assay: competition with Cy-5 metastin (40-54) on hOT7T175-CHO cells, FMAT
T1 construct: expressed on CHO cells; also called hOT7T175; hOT7T175-expressed CHO cells
T1 sequence (Q969F8 whole entry L364H): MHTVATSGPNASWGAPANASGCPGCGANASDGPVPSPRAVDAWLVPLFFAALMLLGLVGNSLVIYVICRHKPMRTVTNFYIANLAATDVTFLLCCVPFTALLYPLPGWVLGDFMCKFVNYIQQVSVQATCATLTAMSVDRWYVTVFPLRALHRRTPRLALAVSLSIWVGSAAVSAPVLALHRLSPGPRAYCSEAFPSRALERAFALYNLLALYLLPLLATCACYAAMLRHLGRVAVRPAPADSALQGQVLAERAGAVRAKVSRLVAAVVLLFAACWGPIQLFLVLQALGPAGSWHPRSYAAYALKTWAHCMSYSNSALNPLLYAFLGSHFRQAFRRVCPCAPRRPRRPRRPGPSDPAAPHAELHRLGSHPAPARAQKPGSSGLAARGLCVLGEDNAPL
Non-standard residues stand in square brackets, D forms with d. No end group written: not given here. *: point of attachment. Phe(F5) = N[C@@H](Cc1c(F)c(F)c(F)c(F)c1F)C(=O)O; Diphenylacetyl = O=C(C(c1ccccc1)c1ccccc1)*; Phe(4-NH2) = Nc1ccc(C[C@H](N)C(=O)O)cc1; Cyclohexanecarbonyl = O=C(C1CCCCC1)*; Arg(Me) = CNC(=N)NCCC[C@H](N)C(=O)O; Cha = N[C@@H](CC1CCCCC1)C(=O)O; Dab = NCC[C@H](N)C(=O)O; azaGly = NNC(=O)O
Catalogue of IC50 values
Don't forget the unit after the number, please.

{"columns": ["Binder", "Reported property", "Value observed"],
 "data": [
  ["WNSF[azaGly]LR(Me)F-NH2 (N-terminus assumed; SMILES CNC(=N)NCCC[C@H](NC(=O)[C@H](CC(C)C)NC(=O)NNC(=O)[C@H](Cc1ccccc1)NC(=O)[C@H](CO)NC(=O)[C@H](CC(N)=O)NC(=O)[C@@H](N)Cc1c[nH]c2ccccc12)C(=O)N[C@@H](Cc1ccccc1)C(N)=O, also called Compound No. 271) [des(1-2)-[AzaGly7,Arg(Me)9]MS10]", "IC50", "120 nM"],
  ["YNWNSXGLRF (Nal(2)6; C-terminal amide, also called Compound No. 152) [[Nal(2)6]MS10]", "IC50", "180 nM"],
  ["YNWNSFGLR[Phe(4-NH2)]-NH2 (also called Compound No. 131) [[Phe(4NH2)10]MS10]", "IC50", "120 nM"],
  ["Diphenylacetyl-NSF[azaGly]L[Arg(Me)]F-NH2 (SMILES CNC(=N)NCCC[C@H](NC(=O)[C@H](CC(C)C)NC(=O)NNC(=O)[C@H](Cc1ccccc1)NC(=O)[C@H](CO)NC(=O)[C@H](CC(N)=O)NC(=O)C(c1ccccc1)c1ccccc1)C(=O)N[C@@H](Cc1ccccc1)C(N)=O, also called Compound No. 268) [des(1-3)-Diphenylacetyl-[AzaGly7,Arg(Me)9]MS10]", "IC50", "550 nM"]
]}

IC50 for YNWNSFGL[Dab]F-NH2 (also called Compound No. 313) [[Dab9]MS10] ?
690 nM

IC50 for [dY]QWNSFGL[Arg(Me)]F-NH2 (also called Compound No. 214) [[D-Tyr1,Gln2,Arg(Me)9]MS10] ?
390 nM

IC50 for ANWNSFGLRF-NH2 (also called Compound No. 72) [[Ala1]MS10] ?
540 nM

IC50 for LPNYNWNSFGLRF-NH2 (also called Compound No. 32) [Leu-Pro-Asn-MS10] ?
25 nM

IC50 for Cyclohexanecarbonyl-NSF[azaGly]L[Arg(Me)]F-NH2 (also called Compound No. 278) [des(1-3)-Cyclohexanecarbonyl-[AzaGly7,Arg(Me)9]MS10] ?
110 nM

IC50 for [dY]NWNSFGL[Arg(Me)]W-NH2 (N-terminus assumed; SMILES CNC(=N)NCCC[C@H](NC(=O)[C@H](CC(C)C)NC(=O)CNC(=O)[C@H](Cc1ccccc1)NC(=O)[C@H](CO)NC(=O)[C@H](CC(N)=O)NC(=O)[C@H](Cc1c[nH]c2ccccc12)NC(=O)[C@H](CC(N)=O)NC(=O)[C@H](N)Cc1ccc(O)cc1)C(=O)N[C@@H](Cc1c[nH]c2ccccc12)C(N)=O, also called Compound No. 174) [[D-Tyr1,Arg(Me)9,Trp10]MS10] ?
420 nM

IC50 for [dY]N[Cha]NSFGL[Arg(Me)]F-NH2 (N-terminus assumed; SMILES CNC(=N)NCCC[C@H](NC(=O)[C@H](CC(C)C)NC(=O)CNC(=O)[C@H](Cc1ccccc1)NC(=O)[C@H](CO)NC(=O)[C@H](CC(N)=O)NC(=O)[C@H](CC1CCCCC1)NC(=O)[C@H](CC(N)=O)NC(=O)[C@H](N)Cc1ccc(O)cc1)C(=O)N[C@@H](Cc1ccccc1)C(N)=O, also called Compound No. 171) [[D-Tyr1,Cha3,Arg(Me)9]MS10] ?
110 nM

IC50 for YNWNSXGLRF (D-Tyr1; Cha6; Arg(Me)9; C-terminal amide, also called Compound No. 203) [[D-Tyr1,Cha6,Arg(Me)9]MS10] ?
37 nM

IC50 for [dY]NVNSFGL[Arg(Me)]F-NH2 (N-terminus assumed; SMILES CNC(=N)NCCC[C@H](NC(=O)[C@H](CC(C)C)NC(=O)CNC(=O)[C@H](Cc1ccccc1)NC(=O)[C@H](CO)NC(=O)[C@H](CC(N)=O)NC(=O)[C@@H](NC(=O)[C@H](CC(N)=O)NC(=O)[C@H](N)Cc1ccc(O)cc1)C(C)C)C(=O)N[C@@H](Cc1ccccc1)C(N)=O, also called Compound No. 229) [[D-Tyr1,Val3,Arg(Me)9]MS10] ?
130 nM

IC50 for YLWNSFGLRF-NH2 (also called Compound No. 59) [[Leu2]MS10] ?
340 nM

IC50 for [dY]N[dW]NSF[azaGly]L[Arg(Me)]F-NH2 (also called Compound No. 236) [[D-Tyr1,D-Trp3,AzaGly7,Arg(Me)9]MS10] ?
42 nM

IC50 for YNWNSFGLXF (Nar(Me)9; C-terminal amide, also called Compound No. 311) [[Nar(Me)9]MS10] ?
470 nM

IC50 for YNWNSFGLR[Phe(F5)]-NH2 (also called Compound No. 111) [[Phe(F5)10]MS10] ?
140 nM
